Assay: NCI Yeast Anticancer Drug Screen. Data for the mec2-1 strain (AID 157)
Conditions: S. cerevisiae mec2-1 strain, at 5.0 µM (retest, dose inferred, filed as 0.5), stronger effect = higher value
About 79,000 compounds went through this panel and 15% of them were active in at least one assay; those are over-represented in the sample as a whole.
readout label: growth inhibition (%)

[
  {
    "compound": "Clc1ccc(CN2COc3c(cc(Cl)c4cccnc34)C2)c(Cl)c1",
    "readout label": "growth inhibition",
    "numeric result": -20
  },
  {
    "compound": "[O-]c1c2cc(-[n+]3c(-c4ccccc4)cc(-c4ccccc4)cc3-c3ccccc3)cc1CO[C@@H](c1ccccc1)[C@H](c1ccccc1)OCCOCCO[C@@H](c1ccccc1)[C@H](c1ccccc1)OC2",
    "readout label": "growth inhibition",
    "numeric result": 98
  },
  {
    "compound": "CCN(CC)CCOc1ccc(/C(C#N)=C/c2ccc3ccccc3c2)cc1",
    "readout label": "growth inhibition",
    "numeric result": 30
  },
  {
    "compound": "COC(=O)c1c(C)cccc1C1CN=NC12Cc1ccccc1C2=O (stereo not given)",
    "readout label": "growth inhibition",
    "numeric result": 16
  },
  {
    "compound": "CCCCCCCCCCCCCCCC[N+](C)(C)C(C)c1ccc(OC)cc1 (stereo not given)",
    "readout label": "growth inhibition",
    "numeric result": 98
  },
  {
    "compound": "O=c1c2ccccc2sc2c([N+](=O)[O-])ccc(NCCNCCO)c12",
    "readout label": "growth inhibition",
    "numeric result": 35
  },
  {
    "compound": "O=c1ccnc(Sc2ccc([N+](=O)[O-])cc2[N+](=O)[O-])[nH]1",
    "readout label": "growth inhibition",
    "numeric result": 8
  },
  {
    "compound": "CCOC(=O)c1csc(=S)[nH]1",
    "readout label": "growth inhibition",
    "numeric result": 2
  },
  {
    "compound": "CC/C=C(\\C)CC(C)O (stereo not given)",
    "readout label": "growth inhibition",
    "numeric result": -4
  },
  {
    "compound": "C/C(O)=c1\\cc(C#N)c(=C(C#N)C#N)nc1C",
    "readout label": "growth inhibition",
    "numeric result": -2
  },
  {
    "compound": "CCCCCCCCC1(C(=O)OCCN(CC)CC)CCCCC1",
    "readout label": "growth inhibition",
    "numeric result": 0
  },
  {
    "compound": "CCCCN(CCCC)C(=O)c1ccc(Cl)cc1Cl",
    "readout label": "growth inhibition",
    "numeric result": 7
  },
  {
    "compound": "C/C(=N/NC(=S)N(C)C)c1ccccc1O",
    "readout label": "growth inhibition",
    "numeric result": -34
  },
  {
    "compound": "CC(C)[CH2][Ge]([Cl])([Cl])[Cl]",
    "readout label": "growth inhibition",
    "numeric result": 2
  },
  {
    "compound": "CC1(C)CC[C@]2(C(=O)O)CC[C@]3(C)C(=CC[C@@H]4[C@@]5(C)C[C@H](O)[C@H](O)[C@@](C)(C(=O)O)[C@@H]5CC[C@]43C)[C@@H]2C1",
    "readout label": "growth inhibition",
    "numeric result": 100
  }
]

---

Experiment: NCI Yeast Anticancer Drug Screen. Data for the bub3 strain (AID 167)
Settings: S. cerevisiae bub3 mutant strain, at 5.0 µM (retest, dose inferred, filed as 0.5), stronger effect = higher value
Compounds without any hit were thinned out: in the full panel of roughly 79,000, 15% have a hit. The source made the active and inactive calls. Rule as the data show it: active = growth inhibition above about 70%; inactive = the rest.
readout label: growth inhibition

[
  {
    "compound": "CC(=O)Oc1ccc(C)c(C(C)C(Cl)(Cl)Cl)c1 (centres undefined)",
    "result": "-6% (inactive)"
  },
  {
    "compound": "O=C(CNc1ccc(Cl)cc1)Nn1c(-c2ccccc2)nc2ccccc2c1=O",
    "result": "-7% (inactive)"
  },
  {
    "compound": "CCCCCCCN(CCCCCCC)CC(=O)NC(=O)c1ccccc1",
    "result": "43% (inactive)"
  },
  {
    "compound": "C/C=C\\C(/C=C/C)(C(=O)OCCN(C)C)C(/C=C\\C)(/C=C/C)C(=O)OCCN(C)C (centres undefined)",
    "result": "2% (inactive)"
  },
  {
    "compound": "COc1ccc(C2C3=C(CC(C)(C)CC3=O)Oc3cc4c(cc32)OCO4)c(OC)c1 (centres undefined)",
    "result": "2% (inactive)"
  },
  {
    "compound": "O=P(C(=S)Nc1ccccc1Cl)(c1ccccc1)c1ccccc1",
    "result": "-26% (inactive)"
  },
  {
    "compound": "COc1cccc(C2c3cc4c(cc3OC(O)C2C)OCO4)c1O (centres undefined)",
    "result": "-4% (inactive)"
  },
  {
    "compound": "Cn1c(-c2ccc(/C=N/NC(=S)N/N=C/c3ccc(-c4c[n+]5ccsc5n4C)cc3)cc2)c[n+]2ccsc12",
    "result": "60% (inactive)"
  },
  {
    "compound": "CCCCCCCC(=O)O[C@H]1[C@H]2[C@@H](CC1(C)C)C(=O)[C@]13O[C@H]1C(=O)[C@]1(CO1)[C@]23C",
    "result": "83% (active)"
  }
]

---

Experiment: NCI Yeast Anticancer Drug Screen. Data for the mlh1 rad18 strain (AID 175)
Details: S. cerevisiae mlh1 rad18 strain growth inhibition; at 50.0 µM (retest, dose inferred, filed as 5.0)
Method: Growth inhibition of yeast strains with defined genetic alterations is measured as a screen for potential anti-cancer activity. Selected strains with alterations in DNA damage repair or cell cycle control were exposed to compounds and growth inhibition was measured relative to vehicle treated controls. The strain used in this assay is mlh1 rad18
Compounds without any hit were thinned out: in the full panel of roughly 79,000, 15% have a hit. The source made the active and inactive calls. Rule as the data show it: active = growth inhibition above about 70%; inactive = the rest.
Classes used: active, inactive

[
  {
    "compound": "COc1cc(O)c2c(=O)c3cccc(C)c3[nH]c2c1",
    "assigned category": "inactive"
  },
  {
    "compound": "O=c1c2c(F)c(F)c(F)c(F)c2sc2nccn12",
    "assigned category": "active"
  },
  {
    "compound": "O=C(O)C1OC(Oc2ccc3oc4ccccc4c(=O)c3c2)C(O)C(O)C1O (stereo unspecified)",
    "assigned category": "inactive"
  },
  {
    "compound": "O=C1NC(c2ccccc2)(c2cccs2)C(=O)N1C1c2ccccc2Oc2ccccc21 (stereo unspecified)",
    "assigned category": "active"
  },
  {
    "compound": "C[C@]12CC[C@H](O)C[C@@H]1CC[C@@H]1[C@@H]2CC[C@]2(C)[C@@H](c3cc(C(F)(F)F)n[nH]3)CC[C@@H]12",
    "assigned category": "active"
  },
  {
    "compound": "O=[N+]([O-])c1cc(Br)cc2c1nc(NCCCO)c1ccccc12",
    "assigned category": "active"
  },
  {
    "compound": "C/C(=N\\NC(=S)N1CCN(c2ccccc2)CC1)c1nccs1",
    "assigned category": "active"
  },
  {
    "compound": "CCCn1cc2c(SC)nc(SC)nc2n1",
    "assigned category": "inactive"
  },
  {
    "compound": "C=C1N(S(=O)(=O)c2ccc(C)cc2)C(=O)OCC12CCCC2",
    "assigned category": "inactive"
  },
  {
    "compound": "C=C(CN1CCCC1)C(=O)c1ccc(OC)cc1",
    "assigned category": "active"
  },
  {
    "compound": "C[C@H](CCC1=NCCN1)[C@H]1CC[C@H]2[C@@H]3[C@H](O)C[C@@H]4C[C@H](O)CC[C@]4(C)[C@H]3CC[C@]12C",
    "assigned category": "active"
  },
  {
    "compound": "COc1cccc2c1OC(c1ccc(Cl)cc1)C([N+](=O)[O-])=C2 (stereo unspecified)",
    "assigned category": "active"
  },
  {
    "compound": "COc1cc(Nc2ccc(O)cc2)c2ncccc2c1",
    "assigned category": "active"
  },
  {
    "compound": "COc1ccc(/C=C\\Cc2cc3c(cc2OCCO)OCO3)cc1",
    "assigned category": "active"
  },
  {
    "compound": "BrC1CCCCCC1",
    "assigned category": "inactive"
  },
  {
    "compound": "C=CS(=O)(=O)c1ccc([N+](=O)[O-])cc1",
    "assigned category": "active"
  },
  {
    "compound": "C=CCC1=C(C)C(OC(=O)/C=C/c2ccccc2Cl)CC1=O (stereo unspecified)",
    "assigned category": "active"
  },
  {
    "compound": "CC1=C(C)C(=O)C(C(C)(C)CC(=O)n2cc(F)c(=O)[nH]c2=O)=C(C)C1=O",
    "assigned category": "active"
  },
  {
    "compound": "CC(NNC(=S)N1CC2CCC(CC2)C1)c1nccc2ccccc12 (stereo unspecified)",
    "assigned category": "active"
  },
  {
    "compound": "O=S1(=O)c2ccccc2C(O)(c2ccccc2)c2cc3ccccc3n21 (stereo unspecified)",
    "assigned category": "active"
  },
  {
    "compound": "CCOC(=O)C(=N\\Nc1ccccc1C)/C(C)=N\\NC(N)=S",
    "assigned category": "inactive"
  },
  {
    "compound": "C=C1CC2(CCS(=O)(=O)c3ccccc32)OC1=O (stereo unspecified)",
    "assigned category": "inactive"
  },
  {
    "compound": "Cc1cccc2c(C(=O)CBr)cc(-c3ccc(Cl)cc3)nc12",
    "assigned category": "active"
  },
  {
    "compound": "O=c1c2ccccc2sc2c([N+](=O)[O-])ccc(NCCNCCO)c12",
    "assigned category": "active"
  },
  {
    "compound": "OCC1CC[N-]CC1.OCC1CC[N-]CC1.[Cl][Pt+2]([Cl])([Cl])[Cl]",
    "assigned category": "active"
  },
  {
    "compound": "COC(=O)C1c2cc(C)ccc2-c2ccc(C)cc21",
    "assigned category": "inactive"
  },
  {
    "compound": "[Cl][Sn]([O][Sn]([Cl])([c]1ccccc1)[CH]1CCCCC1)([c]1ccccc1)[CH]1CCCCC1 (stereo unspecified)",
    "assigned category": "active"
  },
  {
    "compound": "O=C(/C=C\\c1ccc(Cl)c(Cl)c1)c1cccs1",
    "assigned category": "inactive"
  },
  {
    "compound": "c1ccc(SSc2ccccc2)cc1",
    "assigned category": "inactive"
  },
  {
    "compound": "CN(C)C=Nc1ccc2nonc2c1",
    "assigned category": "inactive"
  },
  {
    "compound": "CCC1=C(c2ccccc2)C(O)(c2ccccc2)C(CC)C1=O (stereo unspecified)",
    "assigned category": "active"
  },
  {
    "compound": "O=CC1(c2ccc(Cl)cc2)NC(=O)NC1=O (stereo unspecified)",
    "assigned category": "inactive"
  },
  {
    "compound": "Cc1c(CCCl)c(N=[N+]=[N-])n2c(nc3ccccc32)c1C#N",
    "assigned category": "inactive"
  },
  {
    "compound": "CNC(=S)N/N=C(\\C=N\\NC(=S)NC)c1ccccc1",
    "assigned category": "inactive"
  },
  {
    "compound": "CCc1nc(N)nc(N)c1-c1ccc(N(C)Cc2ccccc2)c([N+](=O)[O-])c1",
    "assigned category": "inactive"
  },
  {
    "compound": "CCC(c1ccc(Cl)cc1)C(C#N)c1ccc(Cl)cc1 (stereo unspecified)",
    "assigned category": "inactive"
  }
]
